Biological target: CDK12 (Homo sapiens, UniProt Q9NYV4)
Sequence (Q9NYV4 whole entry): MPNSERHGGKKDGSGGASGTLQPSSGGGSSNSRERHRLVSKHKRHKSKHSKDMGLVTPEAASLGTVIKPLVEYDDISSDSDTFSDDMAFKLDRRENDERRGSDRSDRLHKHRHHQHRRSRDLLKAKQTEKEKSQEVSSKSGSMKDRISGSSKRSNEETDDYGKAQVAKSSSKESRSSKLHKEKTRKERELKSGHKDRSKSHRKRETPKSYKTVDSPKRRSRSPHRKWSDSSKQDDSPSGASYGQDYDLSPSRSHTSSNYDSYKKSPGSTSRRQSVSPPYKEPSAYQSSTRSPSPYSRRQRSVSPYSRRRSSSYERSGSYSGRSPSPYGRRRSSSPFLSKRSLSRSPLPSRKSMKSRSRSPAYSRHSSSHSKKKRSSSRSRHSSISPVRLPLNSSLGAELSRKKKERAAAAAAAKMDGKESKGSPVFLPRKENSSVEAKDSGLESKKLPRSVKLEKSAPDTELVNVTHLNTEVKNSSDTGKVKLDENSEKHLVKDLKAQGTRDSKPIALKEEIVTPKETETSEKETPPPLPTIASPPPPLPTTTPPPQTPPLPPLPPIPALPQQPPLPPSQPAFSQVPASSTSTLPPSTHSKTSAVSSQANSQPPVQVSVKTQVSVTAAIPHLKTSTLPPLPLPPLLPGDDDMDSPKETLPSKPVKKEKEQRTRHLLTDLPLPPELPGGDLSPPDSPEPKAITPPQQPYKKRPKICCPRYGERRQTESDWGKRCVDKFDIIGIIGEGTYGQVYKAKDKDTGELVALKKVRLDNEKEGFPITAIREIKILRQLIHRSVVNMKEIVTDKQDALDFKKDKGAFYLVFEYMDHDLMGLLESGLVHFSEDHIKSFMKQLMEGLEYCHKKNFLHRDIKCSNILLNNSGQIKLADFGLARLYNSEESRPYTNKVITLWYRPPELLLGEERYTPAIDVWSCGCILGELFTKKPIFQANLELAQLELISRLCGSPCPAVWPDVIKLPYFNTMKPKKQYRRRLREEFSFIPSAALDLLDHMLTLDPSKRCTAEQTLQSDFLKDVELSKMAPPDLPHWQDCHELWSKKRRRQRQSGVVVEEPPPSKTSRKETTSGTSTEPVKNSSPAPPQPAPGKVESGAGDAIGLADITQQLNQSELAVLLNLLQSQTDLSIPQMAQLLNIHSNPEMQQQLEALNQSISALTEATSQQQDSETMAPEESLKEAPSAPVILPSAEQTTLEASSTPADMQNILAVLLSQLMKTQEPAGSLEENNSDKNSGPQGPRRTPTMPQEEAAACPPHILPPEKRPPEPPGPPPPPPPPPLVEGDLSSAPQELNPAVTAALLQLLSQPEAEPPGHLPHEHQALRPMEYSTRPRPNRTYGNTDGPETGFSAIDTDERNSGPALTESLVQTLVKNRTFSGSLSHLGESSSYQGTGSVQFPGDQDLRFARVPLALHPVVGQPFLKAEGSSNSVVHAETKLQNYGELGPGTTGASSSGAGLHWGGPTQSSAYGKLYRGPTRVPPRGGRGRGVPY
Sequence (O75909 whole entry partner): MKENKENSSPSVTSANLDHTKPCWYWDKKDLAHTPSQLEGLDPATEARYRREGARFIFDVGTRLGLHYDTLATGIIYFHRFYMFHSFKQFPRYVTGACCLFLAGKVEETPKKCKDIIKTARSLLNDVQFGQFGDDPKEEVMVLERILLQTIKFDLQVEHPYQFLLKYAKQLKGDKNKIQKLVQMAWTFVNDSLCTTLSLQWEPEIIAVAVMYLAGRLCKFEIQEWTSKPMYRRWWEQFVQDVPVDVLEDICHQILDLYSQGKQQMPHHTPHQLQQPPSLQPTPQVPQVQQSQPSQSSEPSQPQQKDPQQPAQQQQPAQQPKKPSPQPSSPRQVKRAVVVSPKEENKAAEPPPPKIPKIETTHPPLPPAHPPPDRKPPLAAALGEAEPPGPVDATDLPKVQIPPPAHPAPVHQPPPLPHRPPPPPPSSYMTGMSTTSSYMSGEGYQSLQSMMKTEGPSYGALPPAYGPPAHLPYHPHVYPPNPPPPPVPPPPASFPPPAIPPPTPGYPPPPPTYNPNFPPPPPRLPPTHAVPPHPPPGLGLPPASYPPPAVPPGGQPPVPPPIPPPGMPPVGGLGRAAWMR
Assay: Biochemical assay for CDK12 (LANCE TR-FRET, IC50 determination)
Conditions: CDK12, IC50 class; read-out: IC50 μM (in range)
EXPERIMENTAL_READOUT: IC50

Some compounds with known IC50 results, for comparison:
CNC(=O)C(C)Oc1cc(NC(=O)Cc2ccc(C3=CCCN(C#N)C3)nc2)ncc1Cl (single isomer, unassigned) [Compound 57]: < 0.01 µM
CCOc1cc(NC(=O)Cc2ccc(C3=CCN(C#N)CC3)nc2)ncc1Cl: < 0.01 µM
COc1cc(NC(=O)Cc2ccc(C3=CCCN(C#N)C3)cn2)ncc1Cl: 0.01 to 0.1 µM

compound CN1C2CCC1CC(Oc1cc(NC(=O)Cc3ccc(C4=CCCN(C#N)C4)nc3)ncc1Cl)C2 (stereo not shown) , IC50 observed: < 0.01 µM

###

Molecular target: CDK12 (Homo sapiens, UniProt Q9NYV4)
Experiment: Biochemical assay for CDK12 (LANCE TR-FRET, IC50 determination)
Settings: compound at 10 μM; read-out: CDK12 % Inhibition @ 10 μM
Procedure: Biochemical Assay for CDK12 (IC50 Determination): The inhibitory activity of the test compounds was assessed by the LANCE TR-FRET assay, which detects the ATP-dependent phosphorylation of an ULight-4E-BP1 (Thr37/Thr46) substrate peptide (100 nM) by CDK12 (30 nM). […] Time-resolved fluorescence (excitation, 320 nm; emission donor, 615 nm; emission acceptor, 665 nm) was monitored by using 2030 multilabel reader Victor5 (PerkinElmer). […]
EXPERIMENTAL_READOUT: inhibition at 10 µM (%)
# output: bare number, implied unit %

Query N#CN1CC=C(c2ccc(CC(=O)Nc3cc(O[C@@H]4CCOC4)c(Cl)cn3)cn2)CC1 yields inhibition at 10 µM of 99

Please fill in: inhibition at 10 µM reported for N#CN1CC=C(c2ccc(CC(=O)Nc3cc(OC4COC4)c(Cl)cn3)cn2)CC1 = 96

COc1cc(NC(=O)Cc2ccc(-c3cccc(C#N)n3)c(F)c2)ncc1Cl has a reported inhibition at 10 µM of 34

// inhibition at 10 µM value for N#CN1CCC=C(c2ccc(CC(=O)Nc3cc(OC4CCCOC4)c(Cl)cn3)cn2)C1 (single isomer, unassigned) [Compound 44] : 89

# inhibition at 10 µM (compound: COc1cc(NC(=O)Cc2ccc(C3=CCCN(C#N)C3)cc2Cl)ncc1Cl ) is 90

For record COc1cc(NC(=O)Cc2ccc(C3=CCCN(C#N)C3)c(OC)c2)ncc1Cl the listed inhibition at 10 µM is 23

###

Known inhibition at 10 µM of a selection of molecules
Molecular target: CDK12 (Homo sapiens, UniProt Q9NYV4)
Test: Biochemical assay for CDK12 (LANCE TR-FRET, IC50 determination)
Details: compound at 10 μM; read-out: CDK12 % Inhibition @ 10 μM
Express the result in % but write the number alone.

CNC(=O)C(C)Oc1cc(NC(=O)Cc2ccc(C3=CCCN(C#N)C3)nc2)ncc1Cl (stereo not shown) [Compound 56]: 100
COc1cc(NC(=O)Cc2ccc(-c3cc(OC4CCN(C)CC4F)cc(C#N)n3)nc2)ncc1Cl (stereo not shown): 100

// below: inhibition at 10 µM requested for another molecule
Test item COc1cc(NC(=O)Cc2ccc(-c3ccc(C#N)c(F)c3)nc2)ncc1Cl ; CDK12 (Homo sapiens, UniProt Q9NYV4); reported inhibition at 10 µM was 54
